Sequence of the target: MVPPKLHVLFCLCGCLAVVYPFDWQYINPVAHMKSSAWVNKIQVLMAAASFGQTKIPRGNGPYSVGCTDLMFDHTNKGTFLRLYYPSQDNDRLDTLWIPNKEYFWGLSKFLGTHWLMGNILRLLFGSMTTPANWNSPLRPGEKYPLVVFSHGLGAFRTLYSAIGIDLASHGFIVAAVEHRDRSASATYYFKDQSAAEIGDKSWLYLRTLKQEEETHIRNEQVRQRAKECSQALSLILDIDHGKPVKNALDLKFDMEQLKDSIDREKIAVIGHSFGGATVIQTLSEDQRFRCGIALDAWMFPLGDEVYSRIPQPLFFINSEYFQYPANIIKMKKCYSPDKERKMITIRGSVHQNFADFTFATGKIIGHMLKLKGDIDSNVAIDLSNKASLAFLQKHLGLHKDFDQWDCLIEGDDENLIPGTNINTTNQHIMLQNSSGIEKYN
Note to self: IC50 under 20 nM means y, ties and anything higher get n.

>  <SMILES TEXT>
Cc1ncc(Cc2cn(CC(=O)N3CCN(c4ccc(Cl)cc4)CC3)c(SCc3ccc(F)cc3)nc2=O)cn1

>  <CLASS ASSIGNMENT>
y

$$$$
>  <SMILES TEXT>
O=C(Cn1cc(Cc2cnc(C3CC3)nc2)c(=O)nc1SCc1ccc(F)cc1)N1CCN(c2ccc(Cl)cc2)CC1

>  <CLASS ASSIGNMENT>
n

$$$$
>  <SMILES TEXT>
O=C(Cn1cc(Cc2cncnc2)c(=O)nc1SCc1ccc(F)cc1)N1CCN(c2ccccc2)C(=O)C1

>  <CLASS ASSIGNMENT>
n

$$$$
>  <SMILES TEXT>
O=C(Cn1cc(Cc2cncnc2)c(=O)nc1SCc1ccc(F)cc1)N1CCN(c2cccc(Cl)c2)CC1

>  <CLASS ASSIGNMENT>
n

$$$$
>  <SMILES TEXT>
CCCCCCCCN1CCN(C(=O)Cn2cc(Cc3cnn(C)c3)c(=O)nc2SCc2ccc(F)cc2)CC1

>  <CLASS ASSIGNMENT>
n

$$$$

Field: below-cutoff. Rule: recorded IC50 strictly less than 20 nM. Subject: `Cn1cc(Cc2cn(CC(=O)N3CCN(C4CCCCC4)CC3)c(SCc3ccc(F)cc3)nc2=O)cn1`
n

Field: below-cutoff. Rule: recorded IC50 strictly less than 20 nM. Subject: `Cn1cc(Cc2cn(CC(=O)N3CCN(c4ccc(Br)cc4)CC3)c(SCc3ccc(F)cc3)nc2=O)cn1`
n

Field: below-cutoff. Rule: recorded IC50 strictly less than 20 nM. Subject: `O=C(Cn1cc(Cc2cncnc2)c(=O)nc1SCc1ccc(F)cc1)N1CCN(c2ccc(F)cc2)CC1`
n

Field: below-cutoff. Rule: recorded IC50 strictly less than 20 nM. Subject: `COc1ncc(Cc2cn(CCCC(=O)N3CCN(c4ccc(C(F)(F)F)cc4)CC3)c(SCc3ccc(F)cc3)nc2=O)cn1`
y

Field: below-cutoff. Rule: recorded IC50 strictly less than 20 nM. Subject: `COc1ncc(Cc2cn(CCCC(=O)N3CCN(c4ccc(Cl)cc4)CC3)c(SCc3ccc(F)cc3)nc2=O)cn1`
y

Field: below-cutoff. Rule: recorded IC50 strictly less than 20 nM. Subject: `CCCCCCCCCCCCN(C)C(=O)Cn1cc(Cc2cnc(OC)nc2)c(=O)nc1SCc1ccc(F)cc1`
y
